experiment: Antiproliferative activity against mouse L929 cells assessed as inhibition of cell growth measured after 48 hrs by MTT assay
Type: toxicity, cell-based
run.conditions: mouse, L929 cells
Would you kindly list IC50 at 48 h for each of these compounds?
Give bare numbers, in µM.

Answered cases to consult:
{"smiles.entry": "CCCn1c[n+](CCC)c2c1C(=O)c1ccccc1C2=O", "unit.symbol": "µM", "IC50 at 48 h": 9.8}
{"smiles.entry": "CCn1c[n+](CC)c2c1C(=O)c1ccccc1C2=O", "unit.symbol": "µM", "IC50 at 48 h": 5.2}
{"smiles.entry": "C[n+]1cn(Cc2ccccc2)c2c1C(=O)c1cc3ccccc3cc1C2=O", "unit.symbol": "µM", "IC50 at 48 h": 37.1}
{"smiles.entry": "COCC[n+]1c2c(n(Cc3cnccn3)c1C)C(=O)c1cc3ccccc3cc1C2=O", "unit.symbol": "µM", "IC50 at 48 h": 141}
{"smiles.entry": "C#CCn1c2c([n+](C)c1C)C(=O)c1cc3ccccc3cc1C2=O", "unit.symbol": "µM", "IC50 at 48 h": 23.8}

Quick request: IC50 at 48 h for each listed item, please.
1. Cc1n(C)c2c([n+]1C)C(=O)c1cc3ccccc3cc1C2=O
2. CCCCn1c[n+](C)c2c1C(=O)c1cc3ccccc3cc1C2=O
3. Cc1n(CC(C)C)c2c([n+]1C)C(=O)c1cc3ccccc3cc1C2=O
4. CCc1n(C)c2c([n+]1C)C(=O)c1cc3ccccc3cc1C2=O
5. Cc1n(C(C)C)c2c([n+]1C)C(=O)c1cc3ccccc3cc1C2=O

[15.1, 65.1, 15.4, 14.6, 17.9]

----------
experiment: Selectivity index, ratio of IC50 for mouse L929 cells to IC50 for human A549 cells
Format: toxicity
run.conditions: L929 cells and A549 cells, read-out: Ratio IC50
readout: selectivity ratio
Numbers only.

Answered cases to consult:
{"smiles.entry": "Cn1c2c([n+](C)c1-c1ccco1)C(=O)c1ccccc1C2=O", "selectivity ratio": 10}
{"smiles.entry": "Cn1c2c([n+](C)c1-c1ccccc1F)C(=O)c1ccccc1C2=O", "selectivity ratio": 10}

Next:
Quick check: selectivity ratio of "Cn1c2c([n+](C)c1C1CC1)C(=O)c1ccccc1C2=O" ? 78

----------
Would you kindly list IC50 for each of these molecules?
System: A549
experiment: cells
run.conditions: Homo sapiens, A549, 48 h
Description: Antiproliferative activity against human A549 cells assessed as inhibition of cell growth measured after 48 hrs by MTT assay
Answers are plain numbers, in nM.

{"molecule": "Cc1n(Cc2cccc(F)c2)c2c([n+]1C)C(=O)c1cc3ccccc3cc1C2=O", "IC50 / nM": 390}
{"molecule": "COCCn1c2c([n+](C)c1C)C(=O)c1cc3ccccc3cc1C2=O", "IC50 / nM": 230}
{"molecule": "CCC(C)Cn1c2c([n+](C)c1C)C(=O)c1cc3ccccc3cc1C2=O (centres undefined)", "IC50 / nM": 370}
{"molecule": "CCCCn1c[n+](CCCC)c2c1C(=O)c1ccccc1C2=O", "IC50 / nM": 510}
{"molecule": "CCCCn1c[n+](C)c2c1C(=O)c1cc3ccccc3cc1C2=O", "IC50 / nM": 670}
{"molecule": "Cc1n(CC#N)c2c([n+]1C)C(=O)c1cc3ccccc3cc1C2=O", "IC50 / nM": 460}

Quick request: IC50 for each listed item, please.
1. Cn1c[n+](C)c2c(O)c3c(c(O)c21)C1C=CC3C1 (centres undefined)
2. CC(C)Cn1c[n+](C)c2c1C(=O)c1cc3ccccc3cc1C2=O
3. Cc1n(Cc2ccccc2)c2c([n+]1C)C(=O)c1cc3ccccc3cc1C2=O
4. Cc1n(C)c2c([n+]1C)C(=O)c1ccccc1C2=O
5. CCn1c2c([n+](CC)c1C)C(=O)c1cc3ccccc3cc1C2=O
6. Cn1c2c([n+](C)c1C1CC1)C(=O)c1cc3ccccc3cc1C2=O

31500
1870
880
90
70
80

Quick request: IC50 for each listed item, please.
1. CCn1c[n+](C)c2c1C(=O)c1cc3ccccc3cc1C2=O
2. COCCOCCn1c[n+](C)c2c1C(=O)c1cc3ccccc3cc1C2=O
3. CCc1n(C)c2c([n+]1C)C(=O)c1ccccc1C2=O

240
210
160
